The origin of these recorded values is ChEMBL document CHEMBL3272079.

Test: Octanol-phosphate buffer partition coefficient, Kp of the compound at pH 7.4
Assay type: physicochemical
endpoint: Kp
No unit in the answer, only the number.

[Q] // lookup Kp for CN1CCC(OCC(O)(c2ccccc2)c2ccccc2)CC1
[A] 3.1

[Q] And the next one, CCN(CC)CCOCC(O)(c1ccccc1)c1ccccc1 ?
[A] 5.6

[Q] Please do the same for CCN(CC)CCOC(=O)C(O)(c1ccccc1)c1ccccc1.Cl as well.
[A] 0.26

* * *

Species on record: Rattus norvegicus
Experiment: animal or person
Assay type: functional
Settings: Wistar, ip, route intraperitoneal
Description: Anticataleptic activity in albino Wistar rat assessed as inhibition of perphenazine-induced catatonia at 2 mg/kg, ip preincubated for 15 mins followed by perphenazine challenge measured at 3 hrs relative to control
endpoint: inhibition in vivo at 2 mg/kg (%)
Numbers only here, please. The scale is %.

CN(C)CCCOCC(O)(c1ccccc1)c1ccccc1: 17
C=CCN(C)CCOCC(O)(c1ccccc1)c1ccccc1: 0
CN1[C@@H]2CC[C@H]1C[C@H](OC(=O)C(CO)c1ccccc1)C2 (some centres not stated): 27
CN(C)CCOCC(O)(c1ccccc1)c1ccccc1: 8
OC(COC1CN2CCC1CC2)(c1ccccc1)c1ccccc1 (configuration not stated): 48

[Q] # query: inhibition in vivo at 2 mg/kg of entry CN1CCC(OCC(O)(c2ccccc2)c2ccccc2)CC1
[A] 0

[Q] Also need CN1CCCC(OCC(O)(c2ccccc2)c2ccccc2)C1 (configuration not stated) , thanks.
[A] 17

[Q] Can you handle CCN(CC)CCOCC(O)(c1ccccc1)c1ccccc1 next?
[A] 0

* * *

Organism: Rattus norvegicus
Experiment: animal or person
Format: functional
Conditions: Wistar, ip, route intraperitoneal
Description: Anticataleptic activity in albino Wistar rat assessed as inhibition of perphenazine-induced catatonia at 2 mg/kg, ip preincubated for 15 mins followed by perphenazine challenge measured at 1 hr relative to control
Counter-ions that a name gives are not always drawn.
endpoint: inhibition in vivo at 2 mg/kg (%)
Your answer is read as %, so omit the unit and give the number.

[Q] Recorded inhibition in vivo at 2 mg/kg of CN1CCC(OCC(O)(c2ccccc2)c2ccccc2)CC1 , please.
[A] 37

[Q] Also CN1[C@@H]2C[C@@H](OC(=O)[C@H](CO)c3ccccc3)C[C@H]1[C@@H]1O[C@@H]12 [SCOPOLAMINE HYDROBROMIDE] , if possible.
[A] 96

[Q] Also, CN1[C@@H]2CC[C@H]1C[C@H](OC(=O)C(CO)c1ccccc1)C2 (some centres not stated) please.
[A] 56

[Q] Entry C=CCN(CC)CCOCC(O)(c1ccccc1)c1ccccc1 please
[A] 0

[Q] Now consider CCN1CCCC(OCC(O)(c2ccccc2)c2ccccc2)C1 (configuration not stated) and answer again.
[A] 0

* * *

Recorded inhibition in vivo at 2 mg/kg by entry
Species on record: Rattus norvegicus
Assay: animal or person
Type: functional
Details: Wistar, ip, route intraperitoneal
Counter-ions that a name gives are not always drawn.

Examples from the recorded data:
CN1CCC(OCC(O)(c2ccccc2)c2ccccc2)C1 (centres undefined): 0%
CCN1CCCC(OCC(O)(c2ccccc2)c2ccccc2)C1 (centres undefined): 0%
C=CCN(CC)CCOCC(O)(c1ccccc1)c1ccccc1: 0%

Now turn to the next compound.
[Q] Consider the compound CN1[C@@H]2C[C@@H](OC(=O)[C@H](CO)c3ccccc3)C[C@H]1[C@@H]1O[C@@H]12 [SCOPOLAMINE HYDROBROMIDE] and give its measured inhibition in vivo at 2 mg/kg.
[A] 71%

* * *

Species on record: Rattus norvegicus
Test: animal or person
Type: functional
Settings: Wistar, ip, route intraperitoneal
endpoint: inhibition in vivo at 2 mg/kg (%)
Response body: numeric value in %, unit text excluded.

Worked examples follow.
CCN(CC)CCOCC(O)(c1ccccc1)c1ccccc1: 0
CN1CCCC(OCC(O)(c2ccccc2)c2ccccc2)C1 (configuration not stated): 67
OC(COC1CN2CCC1CC2)(c1ccccc1)c1ccccc1 (configuration not stated): 85
CN(C)CCCOCC(O)(c1ccccc1)c1ccccc1: 71
CN1CCC(OCC(O)(c2ccccc2)c2ccccc2)C1 (configuration not stated): 21

[Q] Name the recorded inhibition in vivo at 2 mg/kg for C=CCN(C)CCOCC(O)(c1ccccc1)c1ccccc1 .
[A] 25

[Q] Let us now turn to CN(C)CCOCC(O)(c1ccccc1)c1ccccc1
[A] 21
